Provide the reported folding stability dG of each item.
B1: 6NMW (parent)
chain: QGDIVVALYPYDGIHPDDLSFKKGEKMKVLEEHGEWWKAKSLLTKKEGFIPSNYVAKLN

# Variants of: B1
# Assay notes: folding stability dG (cDNA display proteolysis); higher = more stable
# Measurement setup: PBS, room temperature
Please answer in the form of a number followed by its unit of measurement.

For this variant ( K45H ), measured folding stability dG is 4.6 kcal/mol

Record P10F , field folding stability dG: 2.47 kcal/mol

Recorded folding stability dG (variant A7S ): 1.39 kcal/mol

Field folding stability dG (entry S52P ) reads 3.65 kcal/mol

Memo: V5H , reported folding stability dG: 1.41 kcal/mol

Measured folding stability dG of D17P : 2.35 kcal/mol

folding stability dG reported for this variant K57V : 3.39 kcal/mol

Entry L30Q , folding stability dG reported as 1.56 kcal/mol

Record T44G . Reported folding stability dG: 0.839 kcal/mol

For record N59W the listed folding stability dG is 3.08 kcal/mol

Just so you know, measured folding stability dG for N59S came out at 4.06 kcal/mol

Sample K22L ; folding stability dG observed: 3.21 kcal/mol

For K40N the variant record lists folding stability dG as 1.04 kcal/mol

Data point: K45V ; folding stability dG = 1.61 kcal/mol

Summary for this variant, N53M : folding stability dG is 3.07 kcal/mol

Sure, the documented folding stability dG for A39I is 1.95 kcal/mol

The recorded folding stability dG for K45Q is 4.25 kcal/mol

In plain terms, L8V has a documented folding stability dG of 2.29 kcal/mol

The variant P51I showed folding stability dG equal to 0.759 kcal/mol

Field folding stability dG (entry K22Q ) reads 3.49 kcal/mol

Recorded folding stability dG (variant K57Y ): 4.22 kcal/mol

folding stability dG reading for L30W : 1.5 kcal/mol
